# SYSTEM_NAME: Receptor-type tyrosine-protein phosphatase C (Homo sapiens)
# Sequence (P08575 whole entry): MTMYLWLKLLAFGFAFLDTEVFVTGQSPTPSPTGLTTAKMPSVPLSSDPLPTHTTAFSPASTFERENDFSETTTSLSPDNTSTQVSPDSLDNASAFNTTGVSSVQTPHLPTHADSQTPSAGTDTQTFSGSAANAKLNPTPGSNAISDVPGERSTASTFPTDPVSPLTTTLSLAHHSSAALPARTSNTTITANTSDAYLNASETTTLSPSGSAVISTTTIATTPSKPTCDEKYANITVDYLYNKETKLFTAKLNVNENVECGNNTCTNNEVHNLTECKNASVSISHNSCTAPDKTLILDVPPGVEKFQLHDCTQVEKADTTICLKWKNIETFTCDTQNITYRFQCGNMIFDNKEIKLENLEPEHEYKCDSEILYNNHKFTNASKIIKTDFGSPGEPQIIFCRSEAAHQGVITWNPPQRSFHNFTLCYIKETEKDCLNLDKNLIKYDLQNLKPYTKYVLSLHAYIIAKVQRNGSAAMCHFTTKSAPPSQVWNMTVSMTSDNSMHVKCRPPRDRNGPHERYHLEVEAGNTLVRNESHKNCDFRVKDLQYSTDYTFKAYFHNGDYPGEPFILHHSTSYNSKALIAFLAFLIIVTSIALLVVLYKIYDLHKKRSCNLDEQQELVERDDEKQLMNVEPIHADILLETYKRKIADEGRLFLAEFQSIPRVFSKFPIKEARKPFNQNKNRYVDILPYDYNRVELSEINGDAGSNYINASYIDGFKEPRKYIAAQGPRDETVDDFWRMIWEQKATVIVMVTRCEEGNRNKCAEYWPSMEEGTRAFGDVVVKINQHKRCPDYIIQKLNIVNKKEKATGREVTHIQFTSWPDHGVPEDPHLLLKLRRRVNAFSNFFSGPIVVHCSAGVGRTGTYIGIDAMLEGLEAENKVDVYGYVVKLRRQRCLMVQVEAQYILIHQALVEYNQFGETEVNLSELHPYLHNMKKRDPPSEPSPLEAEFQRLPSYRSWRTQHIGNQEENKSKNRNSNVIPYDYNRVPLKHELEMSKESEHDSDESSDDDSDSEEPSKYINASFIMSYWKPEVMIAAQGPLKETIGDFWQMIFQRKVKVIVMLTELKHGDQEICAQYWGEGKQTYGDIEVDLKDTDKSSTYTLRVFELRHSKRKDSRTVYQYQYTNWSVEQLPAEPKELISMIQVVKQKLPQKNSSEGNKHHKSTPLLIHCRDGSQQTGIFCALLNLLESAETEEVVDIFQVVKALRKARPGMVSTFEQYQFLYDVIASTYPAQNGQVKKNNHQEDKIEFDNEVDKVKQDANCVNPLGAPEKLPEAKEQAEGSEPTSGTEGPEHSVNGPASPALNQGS
Listing of recorded IC50 by entry.
PARAMETER_MEASURED: IC50

ENTRY_SMILES	SYSTEM_NAME	ENDPOINT_VALUE
CC1=C[C@@]2(C)[C@@H]3C(=O)[C@@]4(C[C@@H]2O)C(=O)NC(Cc2ccc(cc2)O[C@H]2[C@H]3[C@@H]1[C@]1(C)C[C@H](C)C[C@H](C)[C@@H]21)[C@H]4O	Receptor-type tyrosine-protein phosphatase C (Homo sapiens)	> 200 µM
C=C[C@@]1(C)C=C(C)[C@@H]2[C@@H]3[C@@H](Oc4ccc(cc4)C[C@@]4(O)C/C(=C(/O)[C@H]31)C(=O)N4)[C@@H]1[C@@H](C)C[C@@H](C)C[C@]12C	Receptor-type tyrosine-protein phosphatase C (Homo sapiens)	100 µM
CO[C@@H]1/C2=C3\O[C@@H](C)[C@@]4(C)C=C(C)[C@@H]5[C@H]([C@H](Oc6ccc(cc6)C[C@]1(O)NC2=O)[C@@H]1[C@@H](C)C[C@@H](C)C[C@]15C)[C@@H]34	Receptor-type tyrosine-protein phosphatase C (Homo sapiens)	190 µM
CO[C@@H]1C2Cc3ccc(cc3)O[C@H]3[C@@H]4[C@H]5C(=O)[C@@]1(C[C@@H](O)[C@@]5(C)C=C(C)[C@H]4[C@]1(C)C[C@H](C)C[C@H](C)[C@@H]31)C(=O)N2	Receptor-type tyrosine-protein phosphatase C (Homo sapiens)	> 200 µM
CC(=O)[C@@H]1[C@@H]2[C@H](Oc3ccc(cc3)C[C@]3(O)C[C@]4(C[C@@H](O)[C@](C)(C=O)[C@@H]2C4=O)C(=O)N3)[C@@H]2[C@@H](C)C[C@@H](C)C[C@]21C	Receptor-type tyrosine-protein phosphatase C (Homo sapiens)	> 200 µM
CO[C@@]12Cc3ccc(cc3)O[C@H]3[C@H]([C@H]4C(=O)[C@](C[C@@H](O)[C@]4(C)C=O)(C1)C(=O)N2)[C@@H](C(C)=O)[C@]1(C)C[C@H](C)C[C@H](C)[C@@H]31	Receptor-type tyrosine-protein phosphatase C (Homo sapiens)	> 200 µM
CO[C@@H]1C2Cc3ccc(cc3)O[C@H]3[C@@H]4[C@H]5C(=O)[C@@]1(C[C@H](O)[C@@]5(C)C=C(C)[C@H]4[C@]1(C)C[C@H](C)C[C@H](C)[C@@H]31)C(=O)N2	Receptor-type tyrosine-protein phosphatase C (Homo sapiens)	> 200 µM
C=C[C@@]1(C)C=C(C)[C@@H]2[C@@H]3[C@H](Oc4ccc(cc4)C[C@@H]4C(=O)NC(=O)[C@@H]4C(=O)[C@H]31)[C@@H]1[C@@H](C)C[C@@H](C)C[C@]12C	Receptor-type tyrosine-protein phosphatase C (Homo sapiens)	8.1 µM
C[C@@H]1C[C@H](C)[C@H]2[C@H]3Oc4ccc(cc4)C[C@]4(O)C[C@]5(C[C@H](O)OO[C@@]6(C)[C@H]7O[C@@]7(C)[C@H]([C@H]3[C@H]6C5=O)[C@]2(C)C1)C(=O)N4	Receptor-type tyrosine-protein phosphatase C (Homo sapiens)	> 200 µM
CO[C@@]12Cc3ccc(cc3)O[C@H]3[C@@H]4[C@H]5C(=O)[C@](C[C@H](O)OO[C@@]5(C)[C@H]5O[C@@]5(C)[C@H]4[C@]4(C)C[C@H](C)C[C@H](C)[C@@H]34)(C1)C(=O)N2	Receptor-type tyrosine-protein phosphatase C (Homo sapiens)	> 200 µM

---

# Lookup of reported IC50 keyed by entry
# SYSTEM_NAME: Tyrosine-protein phosphatase non-receptor type 6 (Homo sapiens, UniProt P29350)
# Sequence (P29350 whole entry): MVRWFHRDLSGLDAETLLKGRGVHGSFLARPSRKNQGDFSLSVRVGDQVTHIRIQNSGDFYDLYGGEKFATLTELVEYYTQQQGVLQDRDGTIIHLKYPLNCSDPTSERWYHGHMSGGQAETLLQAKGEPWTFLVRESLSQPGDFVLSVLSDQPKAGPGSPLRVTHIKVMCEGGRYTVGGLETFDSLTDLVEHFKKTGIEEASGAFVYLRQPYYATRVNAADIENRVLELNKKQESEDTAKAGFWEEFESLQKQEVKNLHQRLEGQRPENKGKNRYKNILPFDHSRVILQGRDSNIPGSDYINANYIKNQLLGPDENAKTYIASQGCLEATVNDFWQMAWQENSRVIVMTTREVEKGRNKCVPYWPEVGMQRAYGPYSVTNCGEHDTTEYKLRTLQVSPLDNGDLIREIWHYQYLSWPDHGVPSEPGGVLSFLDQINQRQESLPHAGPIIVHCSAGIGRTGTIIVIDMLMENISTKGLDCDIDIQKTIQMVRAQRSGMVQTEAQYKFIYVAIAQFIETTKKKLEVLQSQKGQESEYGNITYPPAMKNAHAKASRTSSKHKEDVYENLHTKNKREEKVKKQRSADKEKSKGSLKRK
# ASSAY_PROTOCOL: Inhibition of human SHP1
PARAMETER_MEASURED: IC50 (µM)

ENTRY_SMILES	QUALIFIER_SYMBOL	ENDPOINT_VALUE
CO[C@@H]1C2Cc3ccc(cc3)O[C@H]3[C@@H]4[C@H]5C(=O)[C@@]1(C[C@H](O)[C@@]5(C)C=C(C)[C@H]4[C@]1(C)C[C@H](C)C[C@H](C)[C@@H]31)C(=O)N2	=	80
C=C[C@@]1(C)C=C(C)[C@@H]2[C@@H]3[C@@H](Oc4ccc(cc4)C[C@@]4(O)C/C(=C(/O)[C@H]31)C(=O)N4)[C@@H]1[C@@H](C)C[C@@H](C)C[C@]12C	=	100
CC(=O)c1ccc(NC2=C(Cl)C(=O)c3ccccc3C2=O)cc1	=	0.29
CC(=O)[C@@H]1[C@@H]2[C@H](Oc3ccc(cc3)C[C@]3(O)C[C@]4(C[C@@H](O)[C@](C)(C=O)[C@@H]2C4=O)C(=O)N3)[C@@H]2[C@@H](C)C[C@@H](C)C[C@]21C	>	200
CO[C@@H]1C2Cc3ccc(cc3)O[C@H]3[C@@H]4[C@H]5C(=O)[C@@]1(C[C@@H](O)[C@@]5(C)C=C(C)[C@H]4[C@]1(C)C[C@H](C)C[C@H](C)[C@@H]31)C(=O)N2	=	100
C[C@@H]1C[C@H](C)[C@H]2[C@H]3Oc4ccc(cc4)C[C@]4(O)C[C@]5(C[C@H](O)OO[C@@]6(C)[C@H]7O[C@@]7(C)[C@H]([C@H]3[C@H]6C5=O)[C@]2(C)C1)C(=O)N4	>	200

---

# SYSTEM_NAME: Tyrosine-protein phosphatase non-receptor type 2 (Homo sapiens)
# Sequence (P17706 whole entry): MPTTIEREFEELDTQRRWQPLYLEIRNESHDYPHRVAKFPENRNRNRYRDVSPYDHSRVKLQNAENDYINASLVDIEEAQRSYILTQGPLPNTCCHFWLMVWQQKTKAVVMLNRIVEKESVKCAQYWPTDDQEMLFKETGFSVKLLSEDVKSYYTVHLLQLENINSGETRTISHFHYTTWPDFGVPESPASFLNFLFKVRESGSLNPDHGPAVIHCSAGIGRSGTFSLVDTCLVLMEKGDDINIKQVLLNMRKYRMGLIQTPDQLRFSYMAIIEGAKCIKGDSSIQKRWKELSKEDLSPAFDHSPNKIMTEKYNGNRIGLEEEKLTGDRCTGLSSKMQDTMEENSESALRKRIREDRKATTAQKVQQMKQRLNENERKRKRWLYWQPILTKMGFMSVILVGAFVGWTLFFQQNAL
# ASSAY_PROTOCOL: Inhibition of human TCPTP
PARAMETER_MEASURED: IC50

ENTRY_SMILES	ENDPOINT_VALUE
C=C[C@@]1(C)C=C(C)[C@@H]2[C@@H]3[C@@H](Oc4ccc(cc4)C[C@@]4(O)C/C(=C(/O)[C@H]31)C(=O)N4)[C@@H]1[C@@H](C)C[C@@H](C)C[C@]12C	92 µM
CO[C@@]12Cc3ccc(cc3)O[C@H]3[C@@H]4[C@H]5C(=O)[C@](C[C@H](O)OO[C@@]5(C)[C@H]5O[C@@]5(C)[C@H]4[C@]4(C)C[C@H](C)C[C@H](C)[C@@H]34)(C1)C(=O)N2	> 200 µM
CO[C@@H]1C2Cc3ccc(cc3)O[C@H]3[C@@H]4[C@H]5C(=O)[C@@]1(C[C@H](O)[C@@]5(C)C=C(C)[C@H]4[C@]1(C)C[C@H](C)C[C@H](C)[C@@H]31)C(=O)N2	> 200 µM

Source listed as ChEMBL document CHEMBL5120959.
